- Test system: CCRF-CEM leukemia
- Test description: NCI tumour cell line growth inhibition, 48 h

Molecule | Target system | TGI
O=S(=O)(/C=C/c1ccc(F)cc1)Cc1ccc(CS(=O)(=O)/C=C/c2ccc(F)cc2)cc1 | CCRF-CEM leukemia | > 100 µM
C=C/C=C/NC(=O)OCc1ccccc1 | CCRF-CEM leukemia | > 100 µM
Cc1c(Cl)cccc1C(=O)Nc1nc2c(s1)CN(C(=O)c1ccc(C(F)(F)F)cc1)CC2 | CCRF-CEM leukemia | > 50 µM
CC(=O)N1CC(C)(C)c2c(C)c(O)c(C)c(C)c21 | CCRF-CEM leukemia | > 100 µM
COc1ccc(/C=C/c2cc(OC)c(OC)c(OC)c2)cc1 | CCRF-CEM leukemia | > 100 µM
Cc1ccc(S(=O)(=O)n2c3ccc(Br)cc3c3nc4ccccc4nc32)cc1 | CCRF-CEM leukemia | > 100 µM
[Cl][Sn]([c]1ccccc1)([c]1ccccc1)[c]1ccccc1 | CCRF-CEM leukemia | 0.156 µM
O=C(/C=C/Sc1cc(C(F)(F)F)cc(C(F)(F)F)c1)c1ccc(Cl)cc1 | CCRF-CEM leukemia | 1.74 µM
NC(=O)NNc1nc(-c2ccccc2)cs1 | CCRF-CEM leukemia | > 100 µM
CC1=NN(C(=O)c2ccccc2O)C(=O)/C1=C/c1ccc(O)cc1 | CCRF-CEM leukemia | > 100 µM
O=C1CCCCC1S(=O)(=O)c1ccccc1 (stereo unspecified) | CCRF-CEM leukemia | > 100 µM

* * *

- Tested on: ACHN renal
- Test description: NCI tumour cell line growth inhibition, 48 h
Measured metric: TGI

Compound | Result value
OC1(c2ccccc2)CCN(Cc2c[nH]c3ccccc23)CC1 | > 100 µM
NC(=O)NNc1nc(-c2ccccc2)cs1 | > 100 µM
COc1cc2nc(N3CCCC3)nc(NCc3ccccc3)c2cc1OC | 3.89 µM
O=C1C=CC(=O)C2=C1[C@@H](O)C1CC=CC3C(=O)O[C@@H]2C31 (some centres not stated) | > 69.9 µM
Cc1ccc(S(=O)(=O)c2c(COC(=O)c3cccc(C)c3)c(-c3ccccc3)nn2C)cc1 | > 100 µM
COc1ccc2c(c1)c(CC(=O)[Se]C)c(C)n2C(=O)c1ccc(Cl)cc1 | > 1 µM
O=[N+]([O-])c1ccc2sc(C=Nc3cnccn3)cc2c1 | > 100 µM
O=c1[nH]nc(-c2ccccc2)n1/N=C\c1ccccc1 | > 100 µM
CCN(CC)N1C(=O)[N+](CC)(CC)N=C1[O-] | > 100 µM
O=C(N/N=C/C=C/c1ccc([N+](=O)[O-])o1)c1cc2ccccc2cc1O | 9.39 µM
COP(=O)(OC)C(Cc1cn(C(C)=O)c2ccccc12)C(=O)O (configuration not stated) | > 100 µM
CSCSSC | > 100 µM
O=C1NC(=O)C(C(CC(=O)c2ccc([N+](=O)[O-])cc2)c2ccccc2)C(=O)N1 (configuration not stated) | > 100 µM
Cc1ccccc1OCC(O)CN1CCN(c2ccc(Cl)cc2)CC1 (configuration not stated) | 42.2 µM
O=C(c1ccc(Cl)cc1Cl)C1[C@H]2C(=O)N(c3ccc(Cc4ccc(N5C(=O)[C@@H]6ON(c7ccccc7)C(C(=O)c7ccc(Cl)cc7Cl)[C@@H]6C5=O)cc4)cc3)C(=O)[C@H]2ON1c1ccccc1 (some centres not stated) | > 50 µM
C=C1C(O)C2C(=C(CC)C13CC3)C(=O)C(C)(C)C2OC (configuration not stated) | > 100 µM
Cc1cc(S(=O)(=O)N/C(=C(\C#N)C(=O)c2ccc(Cl)cc2)[n+]2ccc(N(C)C)cc2)c([S-])cc1Cl | > 100 µM
NCCCN(CCCN(C(=O)Nc1ccccc1)c1ccccc1)C(=O)Nc1ccccc1 | > 100 µM
CCOC(C[C@H](O[Si](C)(C)C(C)(C)C)[C@H]1COC(=S)S1)OCC | > 100 µM
CCOP(=O)(/C=C\n1cc(C)c(=O)[nH]c1=O)OCC | > 100 µM
O=C1CCCCCCCCCCC1CN1CCCC1 (configuration not stated) | > 100 µM
N#CC1(C#N)NC(c2cccs2)C(C#N)(C#N)NC1c1cccs1 (configuration not stated) | > 100 µM

Reference for the values: PubChem BioAssay (NCI)
